Target entity: human ERα binding to flcERE (Homo sapiens)
Construct: Full-length FLAG-tagged human ERα was expressed and purified as described previously (27); FLAG; made in house
Experiment description: FAMA: inhibition of ERα binding to flcERE
Test settings: FAMA, binding to HRE, 5 concentrations 0.5-10 μM, sequential method; read-out: IC50 ERα
pIC50: −log10 of the molar value.
Assay endpoint: pIC50

Known pIC50 results, listed for orientation:
Measured pIC50 (human ERα binding to flcERE (Homo sapiens)), entry CC1CCCCN1.CC1CCCCN1.[Cl][Cu][Cl] (stereo not drawn) [Compound 1826] : 5.15

Measured pIC50 (human ERα binding to flcERE (Homo sapiens)), entry CCC1CCC(C)NC1 (stereo not drawn) [Compound 6119] : 5.05

Measured pIC50 (human ERα binding to flcERE (Homo sapiens)), entry c1ccc(-c2oc(-c3ccccc3)c(CN3CCCCC3)c2CN2CCCCC2)cc1 [Compound 7473] : 5.05

Measured pIC50 (human ERα binding to flcERE (Homo sapiens)), entry Nc1c(S(=O)(=O)O)cc(Nc2ccc(S(=O)(=O)O)c(Nc3nc(Cl)nc(Cl)n3)c2)c2c1C(=O)c1ccccc1C2=O [Compound 9545] : 6.15

Measured pIC50 (human ERα binding to flcERE (Homo sapiens)), entry CCOC(=O)C(CC)(C(=O)OCC)C(C)C [Compound 4695] : 5.60

(A) CCN(CC)CCOc1ccc(Cl)cc1Cc1ccccc1 [Compound 9548]
(B) CCN(CC)CCOC(=O)c1cc(Br)cc(-c2ccccc2)c1O [Compound 7450]
// pick min by pIC50: A , B In your reply, give the label of the chosen option.
B

---

Target entity: ERα (Homo sapiens)
Experiment description: (ERE)3-luciferase reporter gene assay in T47D-KBluc cells
Format: cell-based
Set-up: Using a stably transfected breast cancer cell line that expresses endogenous ERα; endogenous in cells; host or cells: T47D-KBluc
Test settings: 100 nM E2, 24 h, read-out: IC50 for inhibition of E2-ERα-mediated (ERE)3-luciferase expression (ERE-Luc)
Assay endpoint: IC50 (nM)
Answer in nM, number only, no unit symbol.

Measured IC50 (ERα (Homo sapiens)), entry Cn1c(=S)c2[nH]c(SCCCC(=O)c3ccc(F)cc3)nc2n(C)c1=O : 700

---

Target entity: human androgen receptor (AR) binding to flARE (Homo sapiens, UniProt P10275)
Sequence (P10275 1-920): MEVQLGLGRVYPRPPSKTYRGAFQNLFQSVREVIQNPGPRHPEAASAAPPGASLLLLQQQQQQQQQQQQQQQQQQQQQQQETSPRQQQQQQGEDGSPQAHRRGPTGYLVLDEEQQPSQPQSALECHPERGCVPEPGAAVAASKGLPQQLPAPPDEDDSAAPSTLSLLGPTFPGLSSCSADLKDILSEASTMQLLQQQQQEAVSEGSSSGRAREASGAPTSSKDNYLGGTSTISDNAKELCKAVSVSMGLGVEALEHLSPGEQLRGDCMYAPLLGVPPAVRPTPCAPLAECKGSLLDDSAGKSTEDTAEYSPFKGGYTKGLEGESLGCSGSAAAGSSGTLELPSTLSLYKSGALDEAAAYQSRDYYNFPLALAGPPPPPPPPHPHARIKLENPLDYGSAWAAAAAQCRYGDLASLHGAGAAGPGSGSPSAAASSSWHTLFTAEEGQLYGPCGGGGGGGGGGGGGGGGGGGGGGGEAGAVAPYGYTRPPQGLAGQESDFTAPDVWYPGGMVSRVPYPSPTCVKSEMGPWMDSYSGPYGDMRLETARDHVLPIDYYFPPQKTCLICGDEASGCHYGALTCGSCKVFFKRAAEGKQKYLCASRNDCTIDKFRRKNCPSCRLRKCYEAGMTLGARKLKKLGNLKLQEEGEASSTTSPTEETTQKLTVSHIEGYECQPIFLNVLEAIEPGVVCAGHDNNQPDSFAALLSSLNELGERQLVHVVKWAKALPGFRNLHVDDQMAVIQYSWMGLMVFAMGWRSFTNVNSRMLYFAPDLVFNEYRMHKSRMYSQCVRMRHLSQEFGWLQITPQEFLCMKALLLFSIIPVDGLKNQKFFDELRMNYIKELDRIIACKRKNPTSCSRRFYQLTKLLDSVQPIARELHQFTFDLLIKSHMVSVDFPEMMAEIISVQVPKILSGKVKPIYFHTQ
Assay endpoint: IC50 (µM)

Known IC50 results, listed for orientation:
Sure, the documented IC50 for NNC(=O)OCc1ccccc1 is 1.7

Sure, the documented IC50 for CNc1ccccc1O is 7.5

Sure, the documented IC50 for CCc1c(O)c2c(c(O)c1C(C)=O)C(=O)c1c(cc(O)c(C(=O)O)c1C(=O)O)C2=O is 9

Sure, the documented IC50 for CN(C)CCCn1c2c3ccccc3ccc2c2oc(=O)c3ccccc3c21 is 5

Sure, the documented IC50 for CC1CCCCN1.CC1CCCCN1.[Cl][Cu][Cl] (stereo not drawn) is 8

(A) CCN(CC)CCOc1ccc(Cl)cc1Cc1ccccc1
(B) CCNc1ccc(-c2ccc(NCC)cc2)cc1
// max by IC50 over [ A , B ] In your reply, give the label of the chosen option.
B
(B: 5.8 µM, A: 4 µM)

---

Target entity: human ERα binding to flcERE (Homo sapiens, UniProt P03372)
Construct: Full-length FLAG-tagged human ERα was expressed and purified as described previously (27); FLAG; made in house
Sequence (P03372 1-595): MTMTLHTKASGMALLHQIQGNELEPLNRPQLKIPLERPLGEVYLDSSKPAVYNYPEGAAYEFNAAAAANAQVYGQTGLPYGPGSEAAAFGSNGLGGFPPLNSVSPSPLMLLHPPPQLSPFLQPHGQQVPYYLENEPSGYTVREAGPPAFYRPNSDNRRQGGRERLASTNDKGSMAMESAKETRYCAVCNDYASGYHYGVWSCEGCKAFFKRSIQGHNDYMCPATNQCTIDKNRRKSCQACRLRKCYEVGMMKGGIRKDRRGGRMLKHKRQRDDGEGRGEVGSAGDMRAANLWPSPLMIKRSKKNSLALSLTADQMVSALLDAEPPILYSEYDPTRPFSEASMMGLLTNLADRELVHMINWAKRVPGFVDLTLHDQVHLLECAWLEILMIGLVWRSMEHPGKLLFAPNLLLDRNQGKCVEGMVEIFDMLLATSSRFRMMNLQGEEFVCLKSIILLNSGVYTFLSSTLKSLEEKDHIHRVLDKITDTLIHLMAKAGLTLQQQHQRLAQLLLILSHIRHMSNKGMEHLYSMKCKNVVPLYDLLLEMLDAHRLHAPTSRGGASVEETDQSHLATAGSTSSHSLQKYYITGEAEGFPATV
Experiment description: FAMA: inhibition of ERα binding to flcERE
Test settings: FAMA, binding to HRE, 5 concentrations 0.5-10 μM, sequential method; read-out: IC50 ERα
pIC50: −log10 of the molar value.
Assay endpoint: pIC50

Sure, the documented pIC50 for O=C(O)c1cccc(N=Nc2c(S(=O)(=O)O)ccc3c2C(=O)c2ccccc2C3=O)c1O is 5.42

Sure, the documented pIC50 for Brc1cccs1 is 5.12

Sure, the documented pIC50 for O=C(OC1C2COC(O2)C(OC(=O)c2ccccc2)C1OC(=O)c1ccccc1)c1ccccc1 (stereo not drawn) is 5.35

Sure, the documented pIC50 for CCCCCCCCCCCCCCCC[N+](C)(C)CCN(Cc1ccc(OC)cc1)c1ncccn1 is 5.19

Sure, the documented pIC50 for CN(C)c1ncnc2c1cnn2-c1ccc(Cl)cc1 is 6.22

Sure, the documented pIC50 for O=C1NC(=S)NC(=O)C1=Cc1cccc2cc3ccccc3cc12 is 5.00

(I) CCNc1ccc(-c2ccc(NCC)cc2)cc1
(II) CN(C)CCCn1c2c3ccccc3ccc2c2oc(=O)c3ccccc3c21
// max by pIC50 over [ I , II ] In your reply, give the label of the chosen option.
II

---

Target entity: GR (Rattus norvegicus)
Sequence (P06536 whole entry): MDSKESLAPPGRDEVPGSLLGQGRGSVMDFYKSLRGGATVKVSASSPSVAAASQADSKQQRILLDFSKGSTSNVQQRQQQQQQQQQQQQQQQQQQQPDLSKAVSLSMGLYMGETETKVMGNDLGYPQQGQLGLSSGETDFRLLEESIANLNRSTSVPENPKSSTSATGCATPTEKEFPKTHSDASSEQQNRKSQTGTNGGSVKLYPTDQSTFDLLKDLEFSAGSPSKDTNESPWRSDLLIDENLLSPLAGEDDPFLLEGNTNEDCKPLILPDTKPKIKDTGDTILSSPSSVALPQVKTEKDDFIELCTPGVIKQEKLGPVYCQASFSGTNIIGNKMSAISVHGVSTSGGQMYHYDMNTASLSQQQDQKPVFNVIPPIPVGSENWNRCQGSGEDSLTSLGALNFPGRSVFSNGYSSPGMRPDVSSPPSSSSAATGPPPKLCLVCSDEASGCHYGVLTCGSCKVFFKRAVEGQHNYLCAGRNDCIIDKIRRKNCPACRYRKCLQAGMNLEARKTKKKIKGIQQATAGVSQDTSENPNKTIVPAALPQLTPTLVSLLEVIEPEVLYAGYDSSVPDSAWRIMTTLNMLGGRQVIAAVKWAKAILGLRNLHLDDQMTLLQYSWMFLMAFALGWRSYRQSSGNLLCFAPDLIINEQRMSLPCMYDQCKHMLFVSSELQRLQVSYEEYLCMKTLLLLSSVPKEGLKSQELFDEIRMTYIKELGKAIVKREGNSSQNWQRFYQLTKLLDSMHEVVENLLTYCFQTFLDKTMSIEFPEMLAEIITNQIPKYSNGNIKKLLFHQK
Experiment description: GR transactivation, MMTV-luciferase reporter in T47D cells
Test settings: stably transfected T47D cells, 100 nM Dex, 24 h; read-out: IC50 for inhibition of GR gene expression (MMTV-Luc)
Assay endpoint: pIC50
Scale note: pIC50 = -log10(concentration in M).

Measured pIC50 (GR (Rattus norvegicus)), entry Cn1c(=S)c2[nH]c(SCCCC(=O)c3ccc(F)cc3)nc2n(C)c1=O : 5.00

---

Target entity: human ERα binding to flcERE (Homo sapiens)
Construct: Full-length FLAG-tagged human ERα was expressed and purified as described previously (27); FLAG; made in house
Experiment description: FAMA: inhibition of ERα binding to flcERE
Test settings: FAMA, binding to HRE, 5 concentrations 0.5-10 μM, sequential method; read-out: IC50 ERα
Assay endpoint: IC50 (µM)

Known IC50 results, listed for orientation:
Measured IC50 (human ERα binding to flcERE (Homo sapiens)), entry CCCCCCC1(c2cccnc2)NC(=O)NC1=O (centres unmarked) : 2.6

Measured IC50 (human ERα binding to flcERE (Homo sapiens)), entry C=CCOC(=O)c1ccc(Cl)cc1 : 9

Measured IC50 (human ERα binding to flcERE (Homo sapiens)), entry O=C(Nc1cc[c]([Sb](=[O])([OH])[OH])cc1)c1ccccc1 : 5

Measured IC50 (human ERα binding to flcERE (Homo sapiens)), entry O=[N+]([O-])c1ccc(CO)o1 : 5.8

(I) CC(C)CCOC(=S)S
(II) CCCCCCCC(=O)OC
(III) CCCCC(C)O (centres unmarked)
Order the items by recorded IC50; the first position goes to the largest value. Answer with the labels in sequence, matching the requested order.
I, II, III
